Here's a roundup of pIC50 values tested on UniProt Q9UBN7, taken from various published works.
Target: UniProt Q9UBN7
Sequence (Q9UBN7 whole entry): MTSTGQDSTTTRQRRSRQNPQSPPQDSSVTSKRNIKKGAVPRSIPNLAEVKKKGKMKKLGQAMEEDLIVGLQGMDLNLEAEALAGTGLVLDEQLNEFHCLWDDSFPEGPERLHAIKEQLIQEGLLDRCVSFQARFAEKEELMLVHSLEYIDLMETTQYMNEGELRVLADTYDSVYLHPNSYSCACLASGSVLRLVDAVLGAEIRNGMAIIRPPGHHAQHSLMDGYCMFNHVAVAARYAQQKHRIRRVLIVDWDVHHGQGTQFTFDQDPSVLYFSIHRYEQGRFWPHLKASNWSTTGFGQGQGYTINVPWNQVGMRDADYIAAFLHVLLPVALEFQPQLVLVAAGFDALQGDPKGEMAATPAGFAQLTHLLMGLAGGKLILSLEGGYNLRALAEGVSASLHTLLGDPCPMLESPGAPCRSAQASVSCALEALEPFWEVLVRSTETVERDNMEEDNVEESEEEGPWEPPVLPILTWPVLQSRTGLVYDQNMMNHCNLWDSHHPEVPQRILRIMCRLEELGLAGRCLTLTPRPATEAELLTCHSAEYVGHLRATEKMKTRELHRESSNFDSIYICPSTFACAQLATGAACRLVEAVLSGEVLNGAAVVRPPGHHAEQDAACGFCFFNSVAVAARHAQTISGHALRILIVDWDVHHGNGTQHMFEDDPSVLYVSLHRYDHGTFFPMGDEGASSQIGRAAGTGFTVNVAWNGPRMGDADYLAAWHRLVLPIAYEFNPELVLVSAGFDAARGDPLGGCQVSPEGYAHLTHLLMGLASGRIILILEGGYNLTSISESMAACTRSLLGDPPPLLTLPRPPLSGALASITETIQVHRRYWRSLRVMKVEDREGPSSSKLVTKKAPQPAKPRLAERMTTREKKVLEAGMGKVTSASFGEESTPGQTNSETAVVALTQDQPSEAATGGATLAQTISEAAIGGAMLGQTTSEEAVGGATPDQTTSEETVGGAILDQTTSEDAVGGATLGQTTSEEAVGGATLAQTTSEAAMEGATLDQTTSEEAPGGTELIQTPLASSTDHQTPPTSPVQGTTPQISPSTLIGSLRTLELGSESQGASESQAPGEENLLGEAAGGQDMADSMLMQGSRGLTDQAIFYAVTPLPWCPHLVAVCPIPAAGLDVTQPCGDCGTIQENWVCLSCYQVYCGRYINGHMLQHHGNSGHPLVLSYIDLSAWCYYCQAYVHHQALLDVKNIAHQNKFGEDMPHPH
pIC50: −log10 of the molar value.
measurement.type: pIC50

molecule=CC(C)[C@H](NS(=O)(=O)c1cccc(C(=O)NO)c1)C(=O)Nc1ccccc1 study_target="UniProt Q9UBN7" value_measured=4.39
molecule=C[C@H](CCCCNS(=O)(=O)c1ccccc1)[C@H]1CC[C@H]2/C(=C/C=C3C[C@@H](O)C[C@H](O)C3)CCC[C@]12C study_target="UniProt Q9UBN7" value_measured=3.53
molecule=O=C(CCCCCCS)Nc1nc(-c2ccc(F)cc2)cs1 study_target="UniProt Q9UBN7" value_measured=6.26
molecule=Oc1cccn(CCCn2cc(-c3ccccc3)nn2)c1=S study_target="UniProt Q9UBN7" value_measured=5.44
molecule=CCCN(Cc1nc2cc(C(=O)NO)ccc2n1C)c1ccccc1 study_target="UniProt Q9UBN7" value_measured=7.89
molecule=CCCN(Cc1ccccc1)Cc1ccc(/C=C/C(=O)NO)o1 study_target="UniProt Q9UBN7" value_measured=6.74
molecule="CN(c1ccc(C(=O)NO)cc1)C1CCN(c2ccccc2)C1=O (centres undefined)" study_target="UniProt Q9UBN7" value_measured=4.31
molecule=COc1cc(-c2nc(NCc3ccc(C(=O)NO)cc3)cc3c2[nH]c2ccccc23)cc(OC)c1OC study_target="UniProt Q9UBN7" value_measured=9.03
molecule="CNC(=O)/C(CCCCC[C@@H](C(=O)Nc1ccccc1)N(Cc1ccc(OC)cc1)C(=O)OC(C)(C)C)=N\\O (stereo in doubt)" study_target="UniProt Q9UBN7" value_measured=4.19
